# protocolSummary: NCI Yeast Anticancer Drug Screen. Data for the cln2 rad14 strain (AID 165);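 also: 0% = growth equal to vehicle treated cultures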
# experimentalSetup: S. cerevisiae cln2 rad14 strain, at 50.0 µM, hits give high values
About 79,000 compounds went through this panel and 15% of them were active in at least one assay; those are over-represented in the sample as a whole.
Note that class boundaries on growth inhibition are band 1 (below -10%), band 2 (-10% to below 10%), band 3 (10% or more)

Example results:
>  <compound>
C=CCOc1c(C)cc(C(N)=O)cc1C

>  <classification>
band 3

$$$$
>  <compound>
COc1ccc([C@H]2CC3C(=O)N(c4ccc(OC)cc4)C(=O)C3c3[nH]c4ccccc4c32)cc1 (some centres not stated)

>  <classification>
band 1

$$$$
>  <compound>
c1ccc2oc(-c3ccc4c(c3)OCO4)nc2c1

>  <classification>
band 2

$$$$
>  <compound>
CC(C)CCc1ccccc1O

>  <classification>
band 1

$$$$
>  <compound>
O=C(COc1ccccc1Cl)N1N=C(c2ccc(Cl)cc2)CC1(O)c1ccccc1 (configuration not stated)

>  <classification>
band 2

$$$$

Q: Category lookup for the compound `N[C@H](CCC(=O)NCP(=O)(O)O)C(=O)O`
A: band 2

Q: Entry `O=C1CCSSCCC(=O)Nc2ccccc2N1` belongs to which category?
A: band 2

Q: Category lookup for the compound `CC(=O)Nc1nc(NC(C)=O)c2[nH]c(CO)nc2n1`
A: band 1

Q: # classify by growth inhibition band: O=C(NC1C2CC3CC(C2)CC1C3)c1ccncn1 (configuration not stated)
A: band 3

Q: Given CC(=O)C1=C(C)N2C(=NC3=C(CCc4ccccc43)C2c2ccc(F)cc2)S1 (configuration not stated) , name the class its growth inhibition places it in.
A: band 3

Q: Lab note: sort `C/C([O-])=C(/c1nc(-c2ccc([N+](=O)[O-])o2)no1)[n+]1cc(C)ccc1C` into the matching growth inhibition band.
A: band 3

* * *

Parameter growth inhibition: see the listing below.
# protocolSummary: NCI Yeast Anticancer Drug Screen. Data for the rad50 strain (AID 155);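 also: 0% = growth of vehicle-only cultures of the same strain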
# experimentalSetup: S. cerevisiae rad50 strain growth inhibition; at 50.0 µM; hits give high values
# Procedure: Growth inhibition of yeast strains with defined genetic alterations is measured as a screen for potential anti-cancer activity. Selected strains with alterations in DNA damage repair or cell cycle control were exposed to compounds and growth inhibition was measured relative to vehicle treated controls. The strain used in this assay is rad50
This is part of a sample that, as a whole, favours compounds with a hit. Of some 79,000 tested, about 15% had one in any assay. Active and inactive are the calls of the source. No stated cut-off is given here; in the data, active means growth inhibition above about 70%; inactive means the rest.

Entry under test: `COc1cc(C(=O)N=Nc2c(O)[nH]c3ccc(Br)cc23)cc(OC)c1OC` . Its growth inhibition was 3.55% (inactive)

Noted for `CCC(C(C)=O)C(C)=O` : its growth inhibition reads -46.2% (inactive)

* * *

# protocolSummary: NCI Yeast Anticancer Drug Screen. Data for the rad50 strain (AID 155);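 also: 0% = growth of vehicle-only cultures of the same strain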
# experimentalSetup: S. cerevisiae rad50 strain growth inhibition; at 50.0 µM; hits give high values
# Experimental: Growth inhibition of yeast strains with defined genetic alterations is measured as a screen for potential anti-cancer activity. Selected strains with alterations in DNA damage repair or cell cycle control were exposed to compounds and growth inhibition was measured relative to vehicle treated controls. The strain used in this assay is rad50
This is part of a sample that, as a whole, favours compounds with a hit. Of some 79,000 tested, about 15% had one in any assay.
Reported growth inhibition values for a set of molecules
Reply with just the number (in %).

Consider the reported growth inhibition for these molecules:
>  <molecule>
CCOC(=O)c1cn(C)c2c1C(=O)C(C(=O)OCC)CCN2C(=O)OCC (stereo not drawn)

>  <growth inhibition, %>
-1.5

$$$$
>  <molecule>
O=C(COc1ccc(Cl)c(Cl)c1)NCc1ccc([N+](=O)[O-])cc1

>  <growth inhibition, %>
0.35

$$$$
>  <molecule>
CNC(=O)c1ccccc1CC1(O)CCCC1

>  <growth inhibition, %>
-9.85

$$$$
>  <molecule>
O=[N+]([O-])c1ccc(OP(=O)(O)O)cc1

>  <growth inhibition, %>
-5.9

$$$$

Notebook: `Cc1ccn2nnnc2c1` , growth inhibition read as -8.45

The recorded growth inhibition for `O=C(CN1C(=O)CC(c2ccccc2)(c2ccccc2)C1=O)N1CCN(CCO)CC1` is -0.35

The molecule `O=C(c1ccccc1)N(C(=O)c1ccccc1)c1cccc[n+]1[O-]` showed growth inhibition equal to 4.4

Entry under test: COc1ccccc1C(O)C(C)(C)C (stereo not drawn) . Its growth inhibition was 50.9

Documented growth inhibition of `NC(N)=NC(N)=Nc1cnccn1` : 13.7

According to the records, this molecule [Cl][Pt+2][Cl].[NH-]C1CCCCC1C1CCCCC1[NH-] (stereo not drawn) displays growth inhibition of 14.6

* * *

# protocolSummary: NCI Yeast Anticancer Drug Screen. Data for the mlh1 rad18 strain (AID 175)
# experimentalSetup: S. cerevisiae mlh1 rad18 strain growth inhibition; at 50.0 µM; hits give high values
About 79,000 compounds went through this panel and 15% of them were active in at least one assay; those are over-represented in the sample as a whole. Active and inactive are the calls of the source. No stated cut-off is given here; in the data, active means growth inhibition above about 70%; inactive means the rest.
testReadout: growth inhibition

Check out these entries, answers already filled in.
>  <molecule>
O=c1c(N2CCOCC2)c(N2CCOCC2)c1=O

>  <growth inhibition>
-1.1% (inactive)

$$$$
>  <molecule>
CCCCCCCCCCCCOC(=S)CCl

>  <growth inhibition>
14.7% (inactive)

$$$$
>  <molecule>
NC(=O)CS(=O)CC(N)C(=O)O (stereo not drawn)

>  <growth inhibition>
-29.6% (inactive)

$$$$

# molecule CC1(C)OC2OC(C3CC3)C(OCc3ccccc3)C2O1 (stereo not drawn) ; its growth inhibition = -6.5% (inactive)

In plain terms, CCOC(=O)C1Oc2ccccc2OC1C (stereo not drawn) has a documented growth inhibition of 3.85% (inactive)

What the record says about `CC1=N/C(=C/c2ccc3c(c2)OCO3)C(=O)O1` : growth inhibition is 14% (inactive)

Given item c1ccc(CC2CO2)cc1 (stereo not drawn) , the value recorded as its growth inhibition is -7.9% (inactive)

Lab book: growth inhibition of `COc1cc(O)c(C(C)=O)c(O)c1O` noted as 6.45% (inactive)

* * *

# protocolSummary: NCI Yeast Anticancer Drug Screen. Data for the rad50 strain (AID 155);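 also: 0% = growth of vehicle-only cultures of the same strain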
# experimentalSetup: S. cerevisiae rad50 strain growth inhibition; at 50.0 µM; hits give high values
# Procedure: Growth inhibition of yeast strains with defined genetic alterations is measured as a screen for potential anti-cancer activity. Selected strains with alterations in DNA damage repair or cell cycle control were exposed to compounds and growth inhibition was measured relative to vehicle treated controls. The strain used in this assay is rad50
The panel holds about 79,000 compounds, 15% with a hit somewhere; the sample as a whole holds those more often.
testReadout: growth inhibition (%)
Give the value, in units of %, as a plain number.

Example entries and their recorded answers appear below.
>  <molecule>
COc1ccc(N(C(=O)Nc2ccc(Cl)c(Cl)c2)c2ccccc2)cc1

>  <growth inhibition / %>
-32.1

$$$$
>  <molecule>
CCCN1C(=O)CC(NC(C)=O)C1=O (configuration not stated)

>  <growth inhibition / %>
-2.85

$$$$
>  <molecule>
CCN(CC)CN(CC)CC

>  <growth inhibition / %>
13.7

$$$$
>  <molecule>
O=c1c2cc([N+](=O)[O-])ccc2[nH]n1Cc1ccccn1

>  <growth inhibition / %>
12.5

$$$$
>  <molecule>
O=c1[nH]c(=O)c2c(Cl)cccc2[nH]1

>  <growth inhibition / %>
7.2

$$$$
>  <molecule>
CC(C)(C)NN=C1C(C)(C)C(=NNC(C)(C)C)C1(C)C

>  <growth inhibition / %>
-24

$$$$
>  <molecule>
COC(=O)C(OC)(OC)C(O)c1ccccc1 (configuration not stated)

>  <growth inhibition / %>
34.4

$$$$
>  <molecule>
CCOC1CCCCO1 (configuration not stated)

>  <growth inhibition / %>
-24.5

$$$$
>  <molecule>
Cn1c(N)cc(=O)n(C)c1=O

>  <growth inhibition / %>
22.6

$$$$
>  <molecule>
Cc1ccsc1C(=O)C(CC(=O)c1cccs1)c1ccsc1 (configuration not stated)

>  <growth inhibition / %>
-5.45

$$$$

Kindly note the recorded growth inhibition for `COc1ccc(NC(=O)Nc2cc(Cl)ccc2C)c(Cl)c1` , which is 0.7

Lab note: measured growth inhibition of `NNc1ccc(S(=O)(=O)C(F)F)cc1` was 29.9

* * *

# protocolSummary: NCI Yeast Anticancer Drug Screen. Data for the mlh1 rad18 strain (AID 175)
# experimentalSetup: S. cerevisiae mlh1 rad18 strain growth inhibition; at 50.0 µM; hits give high values
This is part of a sample that, as a whole, favours compounds with a hit. Of some 79,000 tested, about 15% had one in any assay. Calls of active or inactive are those of the source. Cut-off read from the data, not from the text of the source: active = growth inhibition above about 70%; inactive = the rest.
testReadout: growth inhibition

Item: `CCOC(=O)CNc1c(OCc2ccccc2)c(=O)c1=O` | growth inhibition: 5.8% (inactive)

growth inhibition recorded for this compound, O=C(OCC(OC(=O)c1ccccc1)C1CC(C(O)C2CCCCC2)C(=O)O1)c1ccccc1 (configuration not stated) , is 30.6% (inactive)

Kindly note the recorded growth inhibition for `CCCC1CCN(c2ccc([N+](=O)[O-])cc2[N+](=O)[O-])CC1` , which is -1.15% (inactive)

GET /value?item= `S=c1cc(-c2ccccc2)oc2ccccc12` &field=growth inhibition returns -2.8% (inactive)

Record summary for `O=[N+]([O-])c1ccc2c(c1)Sc1ccccc1N2CCCCCl` : reported growth inhibition = -23.2% (inactive)
